Cytochrome P450 2D6 (Homo sapiens, UniProt P10635): recorded AC50 for assorted molecules
Sequence (P10635 whole entry): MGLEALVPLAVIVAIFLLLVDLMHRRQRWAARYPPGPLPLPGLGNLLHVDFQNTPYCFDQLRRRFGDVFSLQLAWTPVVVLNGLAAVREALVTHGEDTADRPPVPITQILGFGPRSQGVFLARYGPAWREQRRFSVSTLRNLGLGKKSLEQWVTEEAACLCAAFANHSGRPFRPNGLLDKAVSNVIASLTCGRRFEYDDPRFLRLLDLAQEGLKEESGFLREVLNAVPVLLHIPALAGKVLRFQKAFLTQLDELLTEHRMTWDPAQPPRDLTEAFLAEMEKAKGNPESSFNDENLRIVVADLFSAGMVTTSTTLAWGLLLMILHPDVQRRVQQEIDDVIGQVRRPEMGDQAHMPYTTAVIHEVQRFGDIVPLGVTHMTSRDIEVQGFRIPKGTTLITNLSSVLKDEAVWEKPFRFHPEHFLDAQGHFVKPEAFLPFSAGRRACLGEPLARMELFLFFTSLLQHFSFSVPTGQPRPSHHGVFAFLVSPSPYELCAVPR

Molecule: c1cc(CNCCCN2CCOCC2)ccn1
Target Of Assay: Cytochrome P450 2D6 (Homo sapiens, UniProt P10635)
AC50: 15.8 µM (inconclusive)
//
Molecule: CCN(CC)c1ccc(/C=N/Nc2nc(C)cc(O)n2)cc1
Target Of Assay: Cytochrome P450 2D6 (Homo sapiens, UniProt P10635)
AC50: 12.6 µM (inconclusive)
//
Molecule: CCCCN(CC)C(=O)Cc1ccccc1OC
Target Of Assay: Cytochrome P450 2D6 (Homo sapiens, UniProt P10635)
AC50: 28.2 µM (inconclusive)
//
Molecule: CCCc1cc(=O)[nH]c(SCc2cc(Cl)ccc2OC(F)F)n1
Target Of Assay: Cytochrome P450 2D6 (Homo sapiens, UniProt P10635)
AC50: 20 µM (inconclusive)
//
Molecule: COc1ccc(S(=O)(=O)NNC(=O)C2Cc3c(ccc4ccccc34)O2)cc1 (stereo unspecified)
Target Of Assay: Cytochrome P450 2D6 (Homo sapiens, UniProt P10635)
AC50: 39.8 µM (inconclusive)
//
Molecule: CN1CCN(c2nc(-c3cccc(C#N)c3)nc3ccccc23)CC1
Target Of Assay: Cytochrome P450 2D6 (Homo sapiens, UniProt P10635);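 also: CYP2D6 member of a cytochrome P450 panel assay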
AC50: 12.6 µM (inconclusive)

###

Target Of Assay: UniProt P0AE70
Sequence (P0AE70 whole entry): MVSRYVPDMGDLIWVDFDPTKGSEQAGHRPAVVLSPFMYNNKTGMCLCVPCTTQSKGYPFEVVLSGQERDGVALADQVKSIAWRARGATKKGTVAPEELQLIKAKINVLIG
Assay Name: fluorescent RNA oligo signal without MazF, dose response, counter-screen for MazEF activator project, biochemical, fluorescence, single-stranded RNase substrate (AID 588502)
Type: functional
The source made the active and inactive calls.

Smi: COCCCn1c(=O)/c(=C\c2ccccc2OC(F)F)s/c1=C(/C#N)C(=O)NCCOC
EC50: > 99 µM (inactive)
//
Smi: Cc1cccc(C(=O)OCc2cc3ccccc3[nH]c2=O)c1
EC50: > 99 µM (inactive)
//
Smi: CCn1cc(C=C2C(=O)c3ccccc3C2=O)c2ccccc21
EC50: 35.9 µM (inactive)
//
Smi: O=C1CSC(=S)N1N=Cc1c(O)ccc2ccccc12
EC50: > 99 µM (inactive)
//
Smi: CCOC(=O)CSc1nc2ccc(C)cc2cc1C#N
EC50: > 99 µM (inactive)

###

Below, each entry is listed alongside its reported EC50.
Assay Name: inhibitors of SNCA 5'UTR-driven reporter translation, confirmation, H4 neuroglioma cells, luminescence (AID 1988)
Type: functional, cell-based
Activity calls are given as the source filed them.
Measured Quantity: EC50

Molecule: N=c1nc(N)nc2n1NC(c1ccc(F)cc1)=CS2
Experimental Value: 13.7 µM (active)
//
Molecule: O=C1OCCC1Sc1nnc(-c2ccc(Cl)cc2Cl)o1 (stereo not drawn)
Experimental Value: 8.84 µM (active)
//
Molecule: O=S(=O)(Nc1cccc2ncccc12)c1cccs1
Experimental Value: 11.8 µM (active)
//
Molecule: COc1ccc(S(=O)(=O)N2c3ccc(F)cc3CCC2C)cc1 (stereo not drawn)
Experimental Value: < 0.1 µM (active)
//
Molecule: COc1ccc(CN2CCN(S(=O)(=O)c3ccccc3)CC2)cc1Br
Experimental Value: > 120 µM (not active)
//
Molecule: C=CCCC(=O)Nc1nc(C)c(-c2csc(Nc3cc(OC)ccc3OC)n2)s1
Experimental Value: 5.52 µM (active)
//
Molecule: CCOc1ccc(NC(=S)N2CCc3cc(OC)c(OC)cc3C2COc2ccc3c(C)cc(=O)oc3c2)cc1 (stereo not drawn)
Experimental Value: > 120 µM (not active)
//
Molecule: CCCCN(Cc1cc2cc(OC)ccc2nc1O)S(=O)(=O)c1ccc(C)cc1
Experimental Value: 11.1 µM (active)

Origin of measurements: ChEMBL document CHEMBL1201862
